Listed compounds paired with reported inhibition at 500 ppm
# Tested on: tobacco mosaic virus (TMV)
# Assay Info: Inhibition of local lesion formation by TMV, half-leaf method on kidney bean primary leaves
# Format: in vivo, tobacco mosaic virus on kidney bean plants (variety: Otebo)
# Reported Conditions: Tobacco mosaic virus, TMV, kidney bean primary leaves, 500 ppm, painted just after inoculation, half-leaf method; read-out: Evaluation (rate of inhibition of lesion spot formation)

Could you tell me which inhibition at 500 ppm is on file for CCCCCCCCCCCCNC[C@H](O)[C@@H](O)[C@H](O)CO ? 90 to 100%

Could you tell me which inhibition at 500 ppm is on file for CCCCCCCCCCNC[C@@H](O)[C@@H](O)[C@H](O)[C@H](O)CO ? 90 to 100%

Could you tell me which inhibition at 500 ppm is on file for CCCCCCCCCCCCNC[C@H](O)[C@H](O)[C@H](O)CO ? 70 to 90%

Could you tell me which inhibition at 500 ppm is on file for CCCCCCCCCCCCNC[C@H](O)[C@@H](O)[C@@H](O)[C@H](O)CO ? 70 to 90%

Could you tell me which inhibition at 500 ppm is on file for CCCCCCCCCCCCCCNC[C@H](O)[C@@H](O)[C@H](O)[C@H](O)CO ? 70 to 90%

Could you tell me which inhibition at 500 ppm is on file for CCCCCCCCCCCCCCCCCCNC[C@H](O)[C@@H](O)[C@H](O[C@@H]1O[C@H](CO)[C@@H](O)[C@H](O)[C@H]1O)[C@H](O)CO ? 70 to 90%

Could you tell me which inhibition at 500 ppm is on file for CCCCCCCCCCCCCCNC[C@@H](O)[C@@H](O)[C@H](O)[C@H](O)CO ? 70 to 90%

Could you tell me which inhibition at 500 ppm is on file for CCCCCCCCCCCCNCC[C@@H](O)[C@H](O)[C@H](O)CO ? 90 to 100%

Could you tell me which inhibition at 500 ppm is on file for CCCCCCCCCCCCCCCCCCNC[C@H](O)[C@@H](O)[C@H](O)[C@H](O)CO ? 90 to 100%
